B1: Pistol ribozyme (parent)
chain: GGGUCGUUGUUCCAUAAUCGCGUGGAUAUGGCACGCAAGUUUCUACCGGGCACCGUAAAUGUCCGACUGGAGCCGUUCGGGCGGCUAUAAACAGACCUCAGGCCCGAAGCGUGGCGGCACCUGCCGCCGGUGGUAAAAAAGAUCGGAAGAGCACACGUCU

- Variants of: B1
- EXPERIMENT SUMMARY: aptazyme ON/OFF ratio, guanine; higher = stronger switching; co-transcriptional cleavage with and without guanine
ASSAY METRIC: aptazyme ON/OFF ratio
Write no unit; give the number alone.

> print(dat)
                            mutant           assay.metric  quantitative.result
1      U7C U8G U10C U11A C12U C13A  aptazyme ON/OFF ratio                 1.15
2                    U8A U10G C13A  aptazyme ON/OFF ratio                 1.52
3                U7C U8G U11C C12A  aptazyme ON/OFF ratio                 1.35
4       U7A U8C G9A U11C C12U C13U  aptazyme ON/OFF ratio                 1.19
5  U7G U8G G9U U10C U11C C12A C13A  aptazyme ON/OFF ratio                 1.33

Query: Provide measured aptazyme ON/OFF ratio value, entry: U7C G9C U11C C13U
Result: 1
